Counter-ions that a name gives are not always drawn.
Each entry below carries its reported melting point.

INSERT INTO measurements (compound, experimental_result) VALUES
  ('FC(F)(F)c1cc(OCc2nnn[nH]2)c2cc(-c3cc4ccccc4o3)ccc2n1', '> 225 °C (dec.)'),
  ('c1ccc2oc(-c3ccc(OCc4nnn[nH]4)c4ncccc34)cc2c1 (as salt: salt)', '> 240 °C (dec.)'),
  ('c1ccc(-c2c(-c3ccc(OCc4nnn[nH]4)c4ncccc34)oc3ccccc23)cc1 (as salt: salt)', '> 273 °C (dec.)'),
  ('CCCCCc1c(-c2ccc3nc(C(F)(F)F)cc(OCc4nnn[nH]4)c3c2)oc2ccccc12', '207 to 209 °C (dec.)');

Would you kindly look at the next entry?
Task item: // query melting point value for entry CCCCCc1c(-c2ccc(OCc3nnn[nH]3)c3ncccc23)oc2ccccc12 (as salt: salt)
Reply: 226 to 228 °C (dec.)

---

assay-system: recombinant human plasminogen activator inhibitor-1 (PAI-1) (Homo sapiens)
Sequence (P05121 24-402): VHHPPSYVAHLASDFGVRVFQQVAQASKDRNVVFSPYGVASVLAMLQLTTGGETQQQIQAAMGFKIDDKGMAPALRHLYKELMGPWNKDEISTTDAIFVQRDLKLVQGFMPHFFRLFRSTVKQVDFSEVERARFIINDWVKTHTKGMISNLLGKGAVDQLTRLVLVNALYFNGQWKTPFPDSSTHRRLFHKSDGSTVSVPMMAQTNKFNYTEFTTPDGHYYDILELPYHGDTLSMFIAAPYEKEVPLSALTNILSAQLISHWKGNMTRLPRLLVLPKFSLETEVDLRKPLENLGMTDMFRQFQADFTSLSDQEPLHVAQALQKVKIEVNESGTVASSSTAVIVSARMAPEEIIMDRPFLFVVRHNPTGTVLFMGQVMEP
protocol-details: Primary Screen for the PAI-1 Inhibition
experimental-context: footnote b: determined by a modification of the Primary Screen for PAI-1 Inhibition
quantity-name: IC50 (µM)

[A] FC(F)(F)c1cc(OCc2nnn[nH]2)c2cc(-c3cc4ccccc4o3)ccc2n1 [Compound 1]
[B] CCCCCc1c(-c2ccc(OCc3nnn[nH]3)c3ncccc23)oc2ccccc12 [Compound 5]
Task item: Recorded IC50 values differ for A and B ; which one is higher? Select an item and report its label.
Reply: A
(A: 38.6 µM, B: 8.1 µM)
